Biological target: T1, ECF30_35
T1 chain: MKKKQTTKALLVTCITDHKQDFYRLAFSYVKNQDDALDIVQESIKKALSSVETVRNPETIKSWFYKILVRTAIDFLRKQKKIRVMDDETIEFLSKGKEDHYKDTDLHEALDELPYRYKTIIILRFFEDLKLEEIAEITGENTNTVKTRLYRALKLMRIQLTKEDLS

[
  {
    "Binder": "AS33_423 (protein) MMAMSNTMPDPREPGDVEALLPWYAAGTLNARDARRVADALDRDPALARQYAVILEEYASTIELNESLGAPSSRAMQKLFAAIDAEPARAPGAGQGLGARFAGFFAGLSPKALAWSASVAGLALLLQAGLIGALLTWPHAAPVQTAAYQPQREVARAPASSPAPATVSPPAAAMADRAADAGKSTPPMVMAERSGGPVVRSLAPQSGPRVLVKFAPEARASEIAALLDQYNAVVVDSSRGGLFRLQFGTQSLSKQDQETLIGRLQKEPVVSVVLSAP",
    "fold repression": 3.09
  }
]
